# target: T1, ΔCARD human caspase 9 (Homo sapiens, UniProt P55211, D305A/E304A/E306A)
# T1 construct: made in house
# T1 sequence (P55211 139-315 E304A/D305A/E306A limits assumed): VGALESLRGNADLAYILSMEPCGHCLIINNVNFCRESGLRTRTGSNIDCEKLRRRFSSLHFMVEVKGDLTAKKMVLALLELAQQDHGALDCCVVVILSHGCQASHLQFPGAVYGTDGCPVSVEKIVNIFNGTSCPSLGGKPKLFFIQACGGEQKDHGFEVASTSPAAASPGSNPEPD
# T1 sequence (P55211 316-416 limits assumed): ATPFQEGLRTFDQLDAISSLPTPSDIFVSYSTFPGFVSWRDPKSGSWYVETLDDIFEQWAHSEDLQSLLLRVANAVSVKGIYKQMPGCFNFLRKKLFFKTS
# experiment summary: Determination of caspase-9 inhibitory constants (Ac-LEHD-AFC hydrolysis)
# Assay type: biochemical
# test settings: 300 nM ΔCARD caspase 9, 100 μM Ac-LEHD-AFC, 37° C.; read-out: Caspase-9 inhibition Ki(app)
# Experimental: ΔCARD (caspase recruitment domain) human caspase 9 (lacking the first 138 residues) with Ala substitutions at residues 304 to 306 was produced as described previously (Boatright et al., (2003) Mol Cell 11: 529–541). The third BIR of […] (residues 252–348) was also prepared as described previously (Sun et al., (2000) J Biol Chem 275(43): 33777–81). […]
endpoint label: pKi
Please keep in mind that pKi is minus log10 of the molar concentration; only the number is needed.

Which pKi is listed for MLBIR-Q: C-terminally truncated version of ML-IAP-BIR with the same number of amino acids as MLXBIR3 and MLXBIR3SG (protein, left off: small tags and cut ends) TEEEEEEGAGATLSRGPAFPGMGSEELRLASFYDWPLTAEVPPELLAAAGFFHTGHQDKVRCFFCYGGLQSWKRGDDPWTEHAKWFPSCQFLLRSKGRDFVHSVQETHSQ ? 5.34

# input molecule: ML-IAP-BIR: wild-type ML-IAP BIR domain construct, amino acids 63–179 of accession number BIR7_HUMAN (protein, left off: small tags and cut ends) TEEEEEEGAGATLSRGPAFPGMGSEELRLASFYDWPLTAEVPPELLAAAGFFHTGHQDKVRCFFCYGGLQSWKRGDDPWTEHAKWFPSCQFLLRSKGRDFVHSVQETHSQLLGSWDP ; wanted: its pKi 5.49
